Reference source for all entries: paper PMC9927571

# Assay System: FtsZ (Filamenting temperature-sensitive mutant Z) (Enterococcus faecalis)
# Construct: recombinant E. faecalis FtsZ protein (FTZ04-B)
# Sequence (O08439 whole entry, change not shown): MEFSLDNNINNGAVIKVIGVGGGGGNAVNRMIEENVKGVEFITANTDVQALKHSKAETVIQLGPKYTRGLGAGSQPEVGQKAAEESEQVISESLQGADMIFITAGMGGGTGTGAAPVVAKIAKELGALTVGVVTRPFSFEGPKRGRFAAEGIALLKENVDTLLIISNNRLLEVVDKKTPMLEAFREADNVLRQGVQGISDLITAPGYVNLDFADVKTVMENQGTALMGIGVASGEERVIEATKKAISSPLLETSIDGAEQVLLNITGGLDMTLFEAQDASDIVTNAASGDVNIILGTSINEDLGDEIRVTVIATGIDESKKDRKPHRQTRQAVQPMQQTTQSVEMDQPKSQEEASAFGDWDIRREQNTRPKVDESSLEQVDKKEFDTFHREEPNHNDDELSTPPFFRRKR
# Protocol: SPR (Biacore T200, FtsZ immobilized on CM5 chip); also GTPase inhibition of E. faecalis FtsZ, IC50 […]
Endpoint: pKd
Bear in mind: pKd is minus log10 of a mol/L concentration; give just that figure.

query: Give reported pKd value for `CC1=C(O)C(=O)C=C2C1=CC=C1[C@@]2(C)CC[C@@]2(C)[C@@H]3C[C@](C)(C(=O)O)CC[C@]3(C)CC[C@]12C`
result: 5.61
